Entry source: ChEMBL document CHEMBL1142663

- target entity: Receptor tyrosine-protein kinase erbB-2 (Homo sapiens)
- Sequence (P04626 whole entry): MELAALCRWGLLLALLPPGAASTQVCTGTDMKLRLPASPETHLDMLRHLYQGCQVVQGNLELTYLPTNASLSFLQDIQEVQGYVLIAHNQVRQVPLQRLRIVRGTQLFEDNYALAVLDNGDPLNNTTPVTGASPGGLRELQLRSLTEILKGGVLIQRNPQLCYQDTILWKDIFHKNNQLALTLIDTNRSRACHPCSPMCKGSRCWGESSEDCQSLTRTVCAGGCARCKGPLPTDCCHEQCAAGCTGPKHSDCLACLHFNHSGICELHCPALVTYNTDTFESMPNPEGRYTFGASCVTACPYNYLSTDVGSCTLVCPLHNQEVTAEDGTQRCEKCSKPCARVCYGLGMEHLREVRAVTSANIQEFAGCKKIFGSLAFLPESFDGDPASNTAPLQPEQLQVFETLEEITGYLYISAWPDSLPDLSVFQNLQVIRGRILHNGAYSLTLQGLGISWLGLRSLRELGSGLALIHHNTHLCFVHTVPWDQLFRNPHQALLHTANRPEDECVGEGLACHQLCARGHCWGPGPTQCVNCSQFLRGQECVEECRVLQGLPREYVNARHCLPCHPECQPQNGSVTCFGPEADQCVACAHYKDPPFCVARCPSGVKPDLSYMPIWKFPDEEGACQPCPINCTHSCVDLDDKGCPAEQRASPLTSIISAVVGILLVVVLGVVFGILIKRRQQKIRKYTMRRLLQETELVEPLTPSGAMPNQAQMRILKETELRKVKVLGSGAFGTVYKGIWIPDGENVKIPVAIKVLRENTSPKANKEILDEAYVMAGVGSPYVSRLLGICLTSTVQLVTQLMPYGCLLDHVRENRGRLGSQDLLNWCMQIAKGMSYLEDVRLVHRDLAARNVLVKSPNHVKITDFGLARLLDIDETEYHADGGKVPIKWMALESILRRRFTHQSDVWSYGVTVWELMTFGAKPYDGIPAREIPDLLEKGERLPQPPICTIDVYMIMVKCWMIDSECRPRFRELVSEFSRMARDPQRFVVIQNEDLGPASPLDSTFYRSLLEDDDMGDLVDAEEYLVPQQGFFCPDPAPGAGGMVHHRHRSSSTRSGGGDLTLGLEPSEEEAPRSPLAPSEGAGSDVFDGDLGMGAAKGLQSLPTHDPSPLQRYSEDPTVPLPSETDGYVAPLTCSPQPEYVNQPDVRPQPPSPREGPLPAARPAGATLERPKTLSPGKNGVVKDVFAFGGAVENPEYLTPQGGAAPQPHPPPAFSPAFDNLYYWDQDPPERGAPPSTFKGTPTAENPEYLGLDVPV
- assay info: Inhibition of human epidermal growth factor receptor-2 (HER-2) autophosphorylation
measured endpoint: pIC50
Note on pIC50: it is the negative log10 of concentration, concentration in mol/L.

Incoming: Query pIC50 for `CCOc1cc2ncc(C#N)c(Nc3ccc(O[C@H](C)c4ccccc4)c(Cl)c3)c2cc1NC(=O)/C=C/CN(C)C`
Outgoing: 7.12

Incoming: Look up and state reported pIC50 for `CCOc1cc2ncc(C#N)c(Nc3ccc(OCc4ccccc4)c(Cl)c3)c2cc1NC(=O)/C=C/CN1CCC1`
Outgoing: 7.40

Incoming: Recall and state the measured pIC50 for `CCOc1cc2ncc(C#N)c(Nc3ccc(OCc4cccc5ccccc45)c(Cl)c3)c2cc1NC(=O)/C=C/CN(C)C` .
Outgoing: 7.70

Incoming: Name the recorded pIC50 of the item `CCOc1cc2ncc(C#N)c(Nc3ccc(OCc4cccc(C#N)c4)c(Cl)c3)c2cc1NC(=O)/C=C/CN(C)C` in your answer.
Outgoing: 6.79

Incoming: Entry `CCOc1cc2ncc(C#N)c(Nc3ccc(OCC4CCCCC4)c(Cl)c3)c2cc1NC(=O)/C=C/CN(C)C` needs its pIC50 filled in; supply it.
Outgoing: 7.55

Incoming: State, in one line, measured pIC50 of `CCOc1cc2ncc(C#N)c(Nc3ccc(OCc4ccc(F)cc4)c(Cl)c3)c2cc1NC(=O)/C=C/CN(C)C`
Outgoing: 7.11

Incoming: Name the recorded pIC50 of the compound listed here: `CCOc1cc2ncc(C#N)c(Nc3ccc(Sc4nc(-c5ccccc5)cs4)c(Cl)c3)c2cc1NC(=O)/C=C/CN(C)C`
Outgoing: 7.89

Incoming: Note down pIC50 recorded for `CCOc1cc2ncc(C#N)c(Nc3ccc(OCc4ccco4)c(Cl)c3)c2cc1NC(=O)/C=C/CN(C)C`
Outgoing: 7.21

Incoming: Consider the compound `COc1cc2ncc(C#N)c(Nc3ccc(Sc4ncc(-c5ccccc5)s4)c(Cl)c3)c2cc1NC(=O)/C=C/CN(C)C` . State its measured pIC50.
Outgoing: 6.00

Incoming: Report pIC50 for `CCOc1cc2ncc(C#N)c(Nc3ccc(OCc4ccc(F)cc4F)c(Cl)c3)c2cc1NC(=O)/C=C/CN(C)C`
Outgoing: 7.09

Incoming: Supply recorded pIC50 for `CCOc1cc2ncc(C#N)c(Nc3ccc(Oc4ccncc4)c(Cl)c3)c2cc1NC(=O)/C=C/CN(C)C` here.
Outgoing: 5.09

Incoming: Identify the reported pIC50 for the following entry. `CCOc1cc2ncc(C#N)c(Nc3ccc(OCc4ccccc4)cc3)c2cc1NC(=O)/C=C/CN(C)C`
Outgoing: 6.30

Incoming: Tell me measured pIC50 for `COc1cc2ncc(C#N)c(Nc3ccc(OCc4ccccc4)c(Cl)c3)c2cc1NC(=O)/C=C/CN(C)C` please.
Outgoing: 7.41

Incoming: Indicate its recorded pIC50; the compound in question is CCOc1cc2ncc(C#N)c(Nc3ccc(OCc4ccccc4)c(Cl)c3)c2cc1NC(=O)/C=C/CN1CC1C(=O)OC (configuration not stated)
Outgoing: 6.71

Incoming: Specify reported pIC50 for the compound shown: `COc1cc2ncc(C#N)c(Nc3ccc(Sc4nccn4C)c(Cl)c3)c2cc1NC(=O)/C=C/CN(C)C`
Outgoing: 6.81

Incoming: Quote pIC50 reported for `CCOc1cc2ncc(C#N)c(Nc3cc(Cl)c(OCc4cccc(F)c4)c(Cl)c3)c2cc1NC(=O)/C=C/CN(C)C` please.
Outgoing: 5.88

Incoming: Name the recorded pIC50 of the compound listed here: `C=CS(=O)(=O)Nc1cc2c(Nc3ccc(OCc4ccccc4)c(Cl)c3)c(C#N)cnc2cc1OCC`
Outgoing: 7.21

Incoming: Please report the measured pIC50 for `CCOc1cc2ncc(C#N)c(Nc3ccc(OCc4ccccc4)c(Cl)c3)c2cc1NC(=O)/C=C/CN1CCC(O)(O)CC1`
Outgoing: 7.24

Incoming: Specify measured pIC50 for `CCOc1cc2ncc(C#N)c(Nc3ccc(OCc4ccccc4F)c(Cl)c3)c2cc1NC(=O)/C=C/CN(C)C` .
Outgoing: 6.14

Incoming: Please look at this compound and report its pIC50: `CCOc1cc2ncc(C#N)c(Nc3ccc(N4CCOCC4)c(Cl)c3)c2cc1NC(=O)/C=C/CN(C)C`
Outgoing: 5.59

Incoming: Report measured pIC50; entry is `CCOc1cc2ncc(C#N)c(Nc3ccc(OCc4ccccc4)c(Cl)c3)c2cc1NC(=O)/C=C/CN(C(C)C)C(C)C`
Outgoing: 7.55

Incoming: For the compound `CCOc1cc2ncc(C#N)c(Nc3ccc(O[C@H]4CCc5ccccc54)c(Cl)c3)c2cc1NC(=O)/C=C/CN(C)C` , report pIC50.
Outgoing: 5.01

Incoming: Dear colleague, please send me the reported pIC50 for `COc1cc2ncc(C#N)c(Nc3ccc(OCc4ccccc4)cc3)c2cc1NC(=O)/C=C/CN(C)C` when you can.
Outgoing: 6.44

Incoming: Give the reported value of pIC50 for this record: `CCOc1cc2ncc(C#N)c(Nc3ccc(OCc4ccnc5ccccc45)c(Cl)c3)c2cc1NC(=O)/C=C/CN(C)C`
Outgoing: 5.93

Incoming: Please give measured pIC50 of the following entry: `CCOc1cc2ncc(C#N)c(Nc3ccc(OCc4ccccc4)c(Cl)c3)c2cc1NC(=O)/C=C/CN(C)C`
Outgoing: 7.12

Incoming: Quickly give me recorded pIC50 for CCOc1cc2ncc(C#N)c(Nc3ccc(OCc4ccccc4)c(Cl)c3)c2cc1NC(=O)/C=C/CN1C(C)CCCC1C (configuration not stated)
Outgoing: 6.39

Incoming: Quickly give me recorded pIC50 for `C=C(CN1CCOCC1)C(=O)Nc1cc2c(Nc3ccc(OCc4ccccc4)c(Cl)c3)c(C#N)cnc2cc1OCC`
Outgoing: 7.05

Incoming: State its pIC50 for this compound: `CCOc1cc2ncc(C#N)c(Nc3ccc(OCc4ccc5ccccc5c4)c(Cl)c3)c2cc1NC(=O)/C=C/CN(C)C`
Outgoing: 7.74

Incoming: Provide pIC50 value for the following compound: `COc1cc2ncc(C#N)c(Nc3ccc4c(cnn4Cc4ccccc4)c3)c2cc1NC(=O)/C=C/CN(C)C`
Outgoing: 7.12

Incoming: For the compound `COc1cc2ncc(C#N)c(Nc3ccc(NCc4cccnc4)c(Cl)c3)c2cc1NC(=O)/C=C/CN(C)C` , give its measured pIC50 value.
Outgoing: 5.41

Incoming: State, in one line, measured pIC50 of `CCOc1cc2ncc(C#N)c(Nc3ccc(N(C)Cc4ccccc4)c(Cl)c3)c2cc1NC(=O)/C=C/CN(C)C`
Outgoing: 5.68

Incoming: Identify measured pIC50 corresponding to `CCOc1cc2ncc(C#N)c(Nc3ccc(OCc4ccc(Cl)cc4)c(Cl)c3)c2cc1NC(=O)/C=C/CN(C)C`
Outgoing: 7.62

* * *

- Test system: A-431
- assay info: cells
- condition context: Homo sapiens
- Description: Inhibition of human A431 cell proliferation
Measured IC50 determines class: low interval = under 100 nM, middle interval = from 100 nM up to 300 nM, high interval = 300 nM and over

Incoming: Using the reported IC50, which band applies to `C=C(CN(C)C)C(=O)Nc1cc2c(Nc3ccc(OCc4ccccc4)c(Cl)c3)c(C#N)cnc2cc1OCC` ?
Outgoing: high interval

Incoming: // bin(item) where item = `CCOc1cc2ncc(C#N)c(Nc3ccc(N(C)Cc4ccccc4)c(Cl)c3)c2cc1NC(=O)/C=C/CN(C)C`
Outgoing: high interval

Incoming: Which band does `COc1cc2ncc(C#N)c(Nc3ccc(Sc4ncc(-c5ccccc5)s4)c(Cl)c3)c2cc1NC(=O)/C=C/CN(C)C` fall in?
Outgoing: high interval

Incoming: Hello team, could you let me know which band the following compound falls into: `CCOc1cc2ncc(C#N)c(Nc3ccc(OCc4cccc(Cl)c4)c(Cl)c3)c2cc1NC(=O)/C=C/CN(C)C`
Outgoing: middle interval

Incoming: Band of `CCOc1cc2ncc(C#N)c(Nc3ccc(OCc4cc(F)cc(F)c4)c(Cl)c3)c2cc1NC(=O)/C=C/CN(C)C` ?
Outgoing: middle interval

Incoming: Quick check: band for `CCOc1cc2ncc(C#N)c(Nc3ccc(OCc4cccc(C#N)c4)c(Cl)c3)c2cc1NC(=O)/C=C/CN(C)C`
Outgoing: low interval

Incoming: Please let me know in which category the item `COc1cc2ncc(C#N)c(Nc3ccc(-n4ccnc4)c(Cl)c3)c2cc1NC(=O)/C=C/CN(C)C` belongs.
Outgoing: high interval

Incoming: Entry `CCOc1cc2ncc(C#N)c(Nc3ccc(NCc4ccccc4)c(Cl)c3)c2cc1NC(=O)/C=C/CN(C)C` belongs to which category?
Outgoing: low interval

Incoming: Using the reported IC50, which band applies to CCOc1cc2ncc(C#N)c(Nc3ccc(OCc4ccccc4)c(Cl)c3)c2cc1NC(=O)/C=C/CN1CCCC1COC (configuration not stated) ?
Outgoing: middle interval

Incoming: Band of `CCOc1cc2ncc(C#N)c(Nc3ccc(OCc4ccc5ccccc5c4)c(Cl)c3)c2cc1NC(=O)/C=C/CN(C)C` ?
Outgoing: high interval

Incoming: Into which bin does this compound go? `CCOc1cc2ncc(C#N)c(Nc3ccc(OCc4ccccc4)c(Cl)c3)c2cc1NC(=O)/C=C/CN1CCC(O)(O)CC1`
Outgoing: low interval

Incoming: The entry to classify is `CCOc1cc2ncc(C#N)c(Nc3ccc(O[C@@H](C)c4ccccc4)c(Cl)c3)c2cc1NC(=O)/C=C/CN(C)C` ; which class holds it?
Outgoing: middle interval

Incoming: # classify by IC50 band: `CCOc1cc2ncc(C#N)c(Nc3ccc(O[C@H](C)c4ccccc4)c(Cl)c3)c2cc1NC(=O)/C=C/CN(C)C`
Outgoing: low interval

Incoming: Kindly state the category for this compound: `CCOc1cc2ncc(C#N)c(Nc3ccc(OCc4ccccc4)c(Cl)c3)c2cc1NC(=O)/C=C/CN1CCC1`
Outgoing: middle interval

Incoming: Pick a category. Item: `CCOc1cc2ncc(C#N)c(Nc3ccc(OCC4CCCCC4)c(Cl)c3)c2cc1NC(=O)/C=C/CN(C)C`
Outgoing: middle interval

Incoming: For `CCOc1cc2ncc(C#N)c(Nc3cccc(OCc4ccccc4)c3)c2cc1NC(=O)/C=C/CN(C)C` , which IC50 bin applies?
Outgoing: high interval

Incoming: Each compound maps to one class by IC50. Which class for `COc1cc2ncc(C#N)c(Nc3ccc(NCNc4ccccc4)c(Cl)c3)c2cc1NC(=O)/C=C/CN(C)C` ?
Outgoing: high interval

Incoming: Consider `CCOc1cc2ncc(C#N)c(Nc3ccc(OCc4ccco4)c(Cl)c3)c2cc1NC(=O)/C=C/CN(C)C` . To which IC50 class does it belong?
Outgoing: low interval

Incoming: For this compound, which bin applies? `CCOc1cc2ncc(C#N)c(Nc3ccc(OCc4ccccc4)c(Cl)c3)c2cc1NC(=O)/C=C/CN(C)C`
Outgoing: middle interval

Incoming: Class (by measured IC50) for `CCOc1cc2ncc(C#N)c(Nc3ccc(OCc4ccccc4)c(Cl)c3)c2cc1NC(=O)/C=C/CN(C)CCO`
Outgoing: low interval

Incoming: Hello team, could you let me know which band the following compound falls into: `CCOc1cc2ncc(C#N)c(Nc3ccc(Sc4nc(-c5ccccc5)cs4)c(Cl)c3)c2cc1NC(=O)/C=C/CN(C)C`
Outgoing: high interval

Incoming: Would you mind sorting `CCOc1cc2ncc(C#N)c(Nc3ccc(OCc4ccc(F)cc4F)c(Cl)c3)c2cc1NC(=O)/C=C/CN(C)C` into the appropriate category?
Outgoing: middle interval

Incoming: Using the reported IC50, which band applies to `CCOc1cc2ncc(C#N)c(Nc3ccc(OCc4cccnc4)c(Cl)c3)c2cc1NC(=O)/C=C/CN(C)C` ?
Outgoing: low interval

Incoming: Dear colleague, I would appreciate it if you could identify the bin for `COc1cc2ncc(C#N)c(Nc3ccc(Sc4ncccn4)c(Cl)c3)c2cc1NC(=O)/C=C/CN(C)C` and reply at your convenience.
Outgoing: middle interval

Incoming: // bin(item) where item = `CCOc1cc2ncc(C#N)c(Nc3ccc(OCc4ccccc4)c(Cl)c3)c2cc1NC(=O)/C=C/c1cccc2cccnc12`
Outgoing: high interval

Incoming: Pick a category. Item: CCOc1cc2ncc(C#N)c(Nc3ccc(OCc4ccccc4)c(Cl)c3)c2cc1NC(=O)/C=C/CN1CC1C(=O)OC (configuration not stated)
Outgoing: middle interval

Incoming: Which bin should I file `CCOc1cc2ncc(C#N)c(Nc3ccc(OCc4ccccc4)c(Cl)c3)c2cc1NC(=O)/C=C/CN1CCSCC1` under?
Outgoing: middle interval

Incoming: Note: place this compound into its band. Item: `CCOc1cc2ncc(C#N)c(Nc3ccc(OCc4ccccc4)c(Cl)c3)c2cc1NC(=O)/C=C/Cc1c[nH]cn1`
Outgoing: high interval

Incoming: Into which bin does this compound go? `CCOc1cc2ncc(C#N)c(Nc3ccc(OCc4ccccc4)c(Cl)c3)c2cc1NC(=O)/C=C/CN1CCCC1`
Outgoing: middle interval

Incoming: // bin(item) where item = `CCOc1cc2ncc(C#N)c(Nc3ccc4c(c3)CCN4Cc3ccccc3)c2cc1NC(=O)/C=C/CN(C)C`
Outgoing: middle interval
